Provenance of the data: patent US20250161273A1

assay: phase 1 first-in-human trial, multiple ascending dose (MAD) PK; assay type: in vivo; details: human, plasma, oral, 200 mg, healthy volunteers, fasted; 200 mg QD; Day 1; read-out: Cmax (geometric mean)
MEASURED_QUANTITY: Cmax

Prompt: Return the recorded Cmax value; entry: Brc1cccc(-c2cc(-c3ccc4c(c3)OCO4)n[nH]2)c1 [anle138b]
Completion: ~447 ng/mL

###

experiment: phase 1 study in patients with mild to moderate Parkinson's disease (PK, safety); assay type: in vivo, human; settings: human, plasma, oral, 300 mg, PD patients; Regimen B 300 mg QD (row prints fed, title fasted state); Day 7; read-out: Cmax (geometric mean)
MEASURED_QUANTITY: Cmax

Prompt: Return the recorded Cmax value; entry: Brc1cccc(-c2cc(-c3ccc4c(c3)OCO4)n[nH]2)c1 [anle138b]
Completion: ~365 ng/mL
